From: patent US8623898B2

molecular target: human type 1 glycine transporter (GlyT1) (Homo sapiens, UniProt P48067); construct: Used in the experiment were T98G cells (glioma cells) developing a human type 1 glycine transporter (GlyT1); endogenous in cells; host or cells: T98G human glioma cells; assay: Glycine uptake inhibition experiment ([3H] glycine uptake in T98G cells); type: cell-based; settings: [3H] glycine 250 nM, 15 min, room temperature, read-out: IC50 (glycine uptake inhibiting activity)
Sequence (P48067 whole entry): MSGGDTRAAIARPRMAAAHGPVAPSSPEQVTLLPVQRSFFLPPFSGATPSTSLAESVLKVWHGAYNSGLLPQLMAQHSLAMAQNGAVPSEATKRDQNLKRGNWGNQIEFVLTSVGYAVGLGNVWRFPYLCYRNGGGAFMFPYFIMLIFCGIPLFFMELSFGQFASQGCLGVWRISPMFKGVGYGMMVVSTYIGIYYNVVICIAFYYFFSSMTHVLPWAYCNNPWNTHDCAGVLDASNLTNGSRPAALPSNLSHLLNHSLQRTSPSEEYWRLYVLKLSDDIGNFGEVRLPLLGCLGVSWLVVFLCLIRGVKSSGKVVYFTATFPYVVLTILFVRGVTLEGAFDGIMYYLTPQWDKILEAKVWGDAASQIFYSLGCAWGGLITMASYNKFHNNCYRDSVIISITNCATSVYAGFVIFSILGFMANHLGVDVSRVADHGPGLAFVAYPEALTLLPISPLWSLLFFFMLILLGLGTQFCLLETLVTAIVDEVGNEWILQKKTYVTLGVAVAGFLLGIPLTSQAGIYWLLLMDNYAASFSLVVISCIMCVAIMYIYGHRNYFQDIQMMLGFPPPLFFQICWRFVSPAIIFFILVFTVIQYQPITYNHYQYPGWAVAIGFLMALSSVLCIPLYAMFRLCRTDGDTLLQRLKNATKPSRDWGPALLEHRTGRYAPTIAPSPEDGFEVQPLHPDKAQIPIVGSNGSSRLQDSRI
readout label: log10 IC50 (log10 of the value in nM)
Answers are given as log10 of IC50 in nM.

A selection of reference data follows.
Qu. Reported log10 IC50 for Cn1cnc(C(=O)N(Cc2ccc(F)c(C(F)(F)F)c2)C2CCOCC2)c1 [Compound 25] : what is it?
Ans. 0.61

Qu. Sample Cn1cnc(C(=O)N(Cc2cccc(OC(F)(F)F)c2)CC2CCOCC2)c1 [Compound 2] — what was its log10 IC50?
Ans. 1.54

Qu. I would be grateful if you could share the reported log10 IC50 for COC(=O)c1cccc(-c2cc(CN(C(=O)c3ncn(C)n3)C3CCOCC3)ccc2F)c1 [Compound 77] .
Ans. 1.02

Qu. Fill blank: measured log10 IC50 of the compound Cn1cnc(C(=O)N(Cc2ccc(F)c(C(F)(F)F)c2)C2CCOCC2)n1 [Compound 35] is ____.
Ans. 1.61

Qu. # log10 IC50 lookup, item CCn1cnc(C(=O)N(Cc2cccc(OC(F)(F)F)c2)C2CCOCC2)c1 [Compound 13]
Ans. 0.49

Further cases:
Qu. What does the data say about its log10 IC50? Entry: Cn1cnc(C(=O)N(Cc2cccc(C(F)(F)F)c2)C2CCOCC2)c1 [Compound 16]
Ans. 0.99

Qu. So what's the measured log10 IC50 for this one? Cn1cnc(C(=O)N(Cc2ccc(F)c(-c3cccc(CCO)c3)c2)C2CCOCC2)c1 [Compound 99]
Ans. 0.95

Qu. Item under review: Cn1cnc(C(=O)N(Cc2ccc(F)c(-c3cccc(OC(F)(F)F)c3)c2)C2CCOCC2)n1 [Compound 87] . Reported log10 IC50?
Ans. 0.73

Qu. Which log10 IC50 value belongs to Cn1cnc(C(=O)N(Cc2cccc(-c3ccccc3)c2)C2CCOCC2)n1 [Compound 55] ?
Ans. 1.46

Qu. # input compound: Cn1cnc(C(=O)N(Cc2ccc(F)c(-c3cccc(CO)c3)c2)C2CCOCC2)c1 [Compound 94] ; wanted: its log10 IC50
Ans. 0.88

Qu. Give its log10 IC50 value. Item: Cn1cnc(C(=O)N(Cc2cccc(I)c2)C2CCOCC2)n1 [Compound 53]
Ans. 1.58

Qu. For the compound Cn1cnc(C(=O)N(Cc2cccc(Cl)c2)C2CCOCC2)c1 [Compound 15] , what log10 IC50 is on record?
Ans. 1.13
